In this section we review reported pKd values for a set of binders.
Target: T1, human glycophorin A on human red blood cells or red blood cell membranes (human, UniProt P02724 20-150)
T1 construct: whole, on cells; also called hRBC; human RBC membranes
T1 sequence (looked up): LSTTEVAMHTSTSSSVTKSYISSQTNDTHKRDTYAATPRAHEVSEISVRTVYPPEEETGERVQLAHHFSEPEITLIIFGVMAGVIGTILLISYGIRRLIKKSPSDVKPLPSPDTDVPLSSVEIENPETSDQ
Test: SPR (Biacore), Fab on human RBC membranes; * not accurate, instrument limit
pKd: −log10 of the molar value.

The cases that follow already have their pKd on record.
- binder: "TPP-7794, affinity matured 6C12 Fab (Fab, V domains shown, Tested as Fab) VH: EVQLVQSGAEVKKPGASVKVSCKASGYTFTTYAIHWVRQAPGQGLEWMGYINPSSGYTRYNPKFKHRVTMTRDKSTSTAYMELRSLRSDDTAVYYCWTGTRDYWGQGTTVTVSS VL: DIQLTQSPSFLSASVGDRVTITCRASSSVRYIYWFQQKPGKAPKLLIYATSFRQSGVPSRFSGSGSGTEYTLTISSLQPEDFATYYCHQRNSFPYTFGQGTKLEIK"
  result: "> 11.00"
- binder: "TPP-7790, affinity matured 6C12 Fab (Fab, V domains shown, Tested as Fab with a 6xHIS tag) VH: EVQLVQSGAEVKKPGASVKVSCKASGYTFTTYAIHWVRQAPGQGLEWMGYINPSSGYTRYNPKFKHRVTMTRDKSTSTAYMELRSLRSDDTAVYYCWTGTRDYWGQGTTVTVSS VL: DIQLTQSPSFLSASVGDRVTITCRASSSVRYIYWFQQKPGKAPKLLIYATSFLQSGVPSRFSGSGSGTEYTLTISSLQPEDFATYYCHQRNSFPYTFGQGTKLEIK"
  result: "> 11.63"

API: the following record is the query input.
In: Reported pKd for TPP-7797, affinity matured 6C12 Fab (Fab, V domains shown, Tested as Fab) VH: EVQLVQSGAEVKKPGASVKVSCKASGYTFTTYTIHWVRQAPGQGLEWMGYINPSSGYTRYNPKFKGRVTMTRDKSTSTAYMELRSLRSDDTAVYYCWTGRRDYWGQGTTVTVSS VL: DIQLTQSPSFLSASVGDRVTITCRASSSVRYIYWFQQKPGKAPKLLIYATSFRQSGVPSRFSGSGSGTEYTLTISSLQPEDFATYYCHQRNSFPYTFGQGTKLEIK : what is it?
Out: 12.60
